Experiment: serum lipid and glucose in normal mice fed the compounds (Example 25)
Assay type: in vivo, ddY male mice
Conditions: 0.05% in diet, one week, n=8; control 135.9 ± 4.8
REPORTED METRIC: total cholesterol in serum (mg/dL)
Please reply with the bare figure in mg/dL and do not write the unit itself.

// returns reported total cholesterol in serum for input CC(/C=C/C1(C)C(C)CCC(=O)C1C)=C\Cc1c(O)c(C=O)c(C)c(Cl)c1OC(=O)c1ccccn1 (stereo not shown) [Example 18, 4-O--picolinyl ascochlorin] 138.4

Param item: CCN(CC)C(=O)Oc1c(Cl)c(C)c(C=O)c(O)c1C/C=C(C)/C=C/C1(C)C(C)CCC(=O)C1C (stereo not shown) [Example 13, 4-O--diethylcarbamoyl ascochlorin] 121.2

Param item: CC(/C=C/C1(C)C(C)CCC(=O)C1C)=C\Cc1c(O)c(C=O)c(C)c(Cl)c1OC(=O)COc1ccc(Cl)cc1 (stereo not shown) [Example 14, 4-O-(p-chlorophenoxy)acetyl ascochlorin] 115.6

Param item: CC(/C=C/C1(C)C(C)CCC(=O)C1C)=C\Cc1c(O)c(C=O)c(C)c(Cl)c1OC(=O)c1cccnc1 (stereo not shown) [Example 11, 4-O-nicotinoyl ascochlorin] 106.7

Param item: COC(=O)c1ccc(C(=O)Oc2c(Cl)c(C)c(C=O)c(O)c2C/C=C(C)/C=C/C2(C)C(C)CCC(=O)C2C)cc1 (stereo not shown) [Example 16] 129.6

Param item: COc1ccc(C(=O)Oc2c(Cl)c(C)c(C=O)c(O)c2C/C=C(C)/C=C/C2(C)C(C)CCC(=O)C2C)cc1 (stereo not shown) [Example 15, 4-O--(p-methoxybenzoyl) ascochlorin] 137.9

Param item: CC(/C=C/C1(C)C(C)CCC(=O)C1C)=C\Cc1c(O)c(C=O)c(C)c(Cl)c1OC(=O)c1ccncc1 (stereo not shown) [Example 17, 4-O-isonicotinoyl ascochlorin] 113.5

----------
Tested on: Ehrlich ascites tumor
Test: life span of mice with Ehrlich ascites tumor (Example 22)
Assay type: in vivo, ddY male mice
Conditions: 2 mg i.p. once a day for 7 days, n=8; control 15.5 ± 2.12
REPORTED METRIC: Days survived (days)
Please reply with the bare figure in days and do not write the unit itself.

Could you share what Days survived was measured for CC(/C=C/C1(C)C(C)CCC(=O)C1C)=C\Cc1c(O)c(C=O)c(C)c(Cl)c1OCCCC(=O)O (centres unmarked) , tested on Ehrlich ascites tumor? 19.3

Param item: CCOC(=O)COc1c(Cl)c(C)c(C=O)c(O)c1C/C=C(C)/C=C/C1(C)C(C)CCC(=O)C1C (centres unmarked) 19.3

----------
Hi there, I'd appreciate the recorded total cholesterol in serum, change for every entry that follows.
Experiment: serum lipid and glucose in normal mice fed the compounds (Example 25)
Assay type: in vivo, ddY male mice
Settings: vs control
Procedure: Five-week-old ddY male mice were given for one week a diet (CE-2 from Nippon Crea Co., Ltd.) containing 0.05% of the compounds of the present invention indicated in Table 7. On the 7th day, the mice were sacrificed and the levels of lipid and glucose in their serum were measured.

// returns reported total cholesterol in serum, change for input CC(/C=C/C1(C)C(C)CCC(=O)C1C)=C\Cc1c(O)c(C=O)c(C)c(Cl)c1OC(=O)c1ccccn1 (stereo not drawn) +1.8%

Param item: CC(/C=C/C1(C)C(C)CCC(=O)C1C)=C\Cc1c(O)c(C=O)c(C)c(Cl)c1OC(=O)c1cccnc1 (stereo not drawn) -21.5%

Param item: COC(=O)c1ccc(C(=O)Oc2c(Cl)c(C)c(C=O)c(O)c2C/C=C(C)/C=C/C2(C)C(C)CCC(=O)C2C)cc1 (stereo not drawn) -4.6%

----------
Experiment: serum lipid and glucose in normal mice fed the compounds (Example 25)
Type: in vivo, ddY male mice
Conditions: vs control
REPORTED METRIC: total cholesterol in serum, change (%)
Please reply with the bare figure in % and do not write the unit itself.

// returns reported total cholesterol in serum, change for input CC(/C=C/C1(C)C(C)CCC(=O)C1C)=C\Cc1c(O)c(C=O)c(C)c(Cl)c1OC(=O)COc1ccc(Cl)cc1 (stereo not shown) -14.8

Param item: CCN(CC)C(=O)Oc1c(Cl)c(C)c(C=O)c(O)c1C/C=C(C)/C=C/C1(C)C(C)CCC(=O)C1C (stereo not shown) -10.8

Param item: CC(/C=C/C1(C)C(C)CCC(=O)C1C)=C\Cc1c(O)c(C=O)c(C)c(Cl)c1OC(=O)c1ccncc1 (stereo not shown) -16.5

----------
Assay: serum lipid and glucose in normal mice fed the compounds (Example 25)
Type: in vivo, ddY male mice
Conditions: vs control
# strict inequality: serum glucose, change < -30% yields yes, everything else yields no

Report whether reported serum glucose, change is lower than -30% (strictly) for COC(=O)c1ccc(C(=O)Oc2c(Cl)c(C)c(C=O)c(O)c2C/C=C(C)/C=C/C2(C)C(C)CCC(=O)C2C)cc1 (stereo not shown) [Example 16] no

Param item: CC(/C=C/C1(C)C(C)CCC(=O)C1C)=C\Cc1c(O)c(C=O)c(C)c(Cl)c1OC(=O)c1ccncc1 (stereo not shown) [Example 17, 4-O-isonicotinoyl ascochlorin] yes

Param item: CCN(CC)C(=O)Oc1c(Cl)c(C)c(C=O)c(O)c1C/C=C(C)/C=C/C1(C)C(C)CCC(=O)C1C (stereo not shown) [Example 13, 4-O--diethylcarbamoyl ascochlorin] no

Param item: CC(/C=C/C1(C)C(C)CCC(=O)C1C)=C\Cc1c(O)c(C=O)c(C)c(Cl)c1OC(=O)COc1ccc(Cl)cc1 (stereo not shown) [Example 14, 4-O-(p-chlorophenoxy)acetyl ascochlorin] no

Param item: CC(/C=C/C1(C)C(C)CCC(=O)C1C)=C\Cc1c(O)c(C=O)c(C)c(Cl)c1OC(=O)c1ccccn1 (stereo not shown) [Example 18, 4-O--picolinyl ascochlorin] no

Param item: COc1ccc(C(=O)Oc2c(Cl)c(C)c(C=O)c(O)c2C/C=C(C)/C=C/C2(C)C(C)CCC(=O)C2C)cc1 (stereo not shown) [Example 15, 4-O--(p-methoxybenzoyl) ascochlorin] yes

Param item: CC(/C=C/C1(C)C(C)CCC(=O)C1C)=C\Cc1c(O)c(C=O)c(C)c(Cl)c1OC(=O)c1cccnc1 (stereo not shown) [Example 11, 4-O-nicotinoyl ascochlorin] no

----------
Assay: serum lipid and glucose in normal mice fed the compounds (Example 25)
Assay type: in vivo, ddY male mice
Details: 0.05% in diet, one week, n=8; control 293.0 ± 13.3
Everything with serum glucose lower than 200 mg/dL is FALSE; everything else, including exactly 200 mg/dL, is TRUE.

Please tell me: is the compound COC(=O)c1ccc(C(=O)Oc2c(Cl)c(C)c(C=O)c(O)c2C/C=C(C)/C=C/C2(C)C(C)CCC(=O)C2C)cc1 (stereo not shown) [Example 16] at or over 200 mg/dL in terms of serum glucose? TRUE

Param item: CC(/C=C/C1(C)C(C)CCC(=O)C1C)=C\Cc1c(O)c(C=O)c(C)c(Cl)c1OC(=O)c1ccncc1 (stereo not shown) [Example 17, 4-O-isonicotinoyl ascochlorin] FALSE

Param item: CC(/C=C/C1(C)C(C)CCC(=O)C1C)=C\Cc1c(O)c(C=O)c(C)c(Cl)c1OC(=O)c1cccnc1 (stereo not shown) [Example 11, 4-O-nicotinoyl ascochlorin] TRUE

Param item: CCN(CC)C(=O)Oc1c(Cl)c(C)c(C=O)c(O)c1C/C=C(C)/C=C/C1(C)C(C)CCC(=O)C1C (stereo not shown) [Example 13, 4-O--diethylcarbamoyl ascochlorin] TRUE

Param item: CC(/C=C/C1(C)C(C)CCC(=O)C1C)=C\Cc1c(O)c(C=O)c(C)c(Cl)c1OC(=O)COc1ccc(Cl)cc1 (stereo not shown) [Example 14, 4-O-(p-chlorophenoxy)acetyl ascochlorin] TRUE

Param item: CC(/C=C/C1(C)C(C)CCC(=O)C1C)=C\Cc1c(O)c(C=O)c(C)c(Cl)c1OC(=O)c1ccccn1 (stereo not shown) [Example 18, 4-O--picolinyl ascochlorin] TRUE

----------
Test system: Ehrlich ascites tumor
Experiment: life span of mice with Ehrlich ascites tumor (Example 22)
Type: in vivo, ddY male mice
Conditions: 2 mg i.p. once a day for 7 days, n=8; control 15.5 ± 2.12
Hi there, I'd appreciate the recorded Days survived for every entry that follows.

// returns reported Days survived for input CCOC(=O)C(C)Oc1c(Cl)c(C)c(C=O)c(O)c1C/C=C(C)/C=C/C1(C)C(C)CCC(=O)C1C (stereo not drawn) > 19.1 ± 1.97 days

Param item: CC(/C=C/C1(C)C(C)CCC(=O)C1C)=C\Cc1c(O)c(C=O)c(C)c(Cl)c1OCC(=O)O (stereo not drawn) > 25.3 ± 4.65 days

Param item: CC(/C=C/C1(C)C(C)CCC(=O)C1C)=C\Cc1c(O)c(C=O)c(C)c(Cl)c1OC(C)C(=O)O (stereo not drawn) > 28.8 ± 3.54 days
